# Assayed Target: T1, monkey CD22 protein (ACROBiosystems, catalog number SI2-R52Ha) (monkey, UniProt F6W485 20-688)
# T1 construct: commercial protein; also called monkey CD22-ECD; monkey CD22-ECD-His
# T1 sequence: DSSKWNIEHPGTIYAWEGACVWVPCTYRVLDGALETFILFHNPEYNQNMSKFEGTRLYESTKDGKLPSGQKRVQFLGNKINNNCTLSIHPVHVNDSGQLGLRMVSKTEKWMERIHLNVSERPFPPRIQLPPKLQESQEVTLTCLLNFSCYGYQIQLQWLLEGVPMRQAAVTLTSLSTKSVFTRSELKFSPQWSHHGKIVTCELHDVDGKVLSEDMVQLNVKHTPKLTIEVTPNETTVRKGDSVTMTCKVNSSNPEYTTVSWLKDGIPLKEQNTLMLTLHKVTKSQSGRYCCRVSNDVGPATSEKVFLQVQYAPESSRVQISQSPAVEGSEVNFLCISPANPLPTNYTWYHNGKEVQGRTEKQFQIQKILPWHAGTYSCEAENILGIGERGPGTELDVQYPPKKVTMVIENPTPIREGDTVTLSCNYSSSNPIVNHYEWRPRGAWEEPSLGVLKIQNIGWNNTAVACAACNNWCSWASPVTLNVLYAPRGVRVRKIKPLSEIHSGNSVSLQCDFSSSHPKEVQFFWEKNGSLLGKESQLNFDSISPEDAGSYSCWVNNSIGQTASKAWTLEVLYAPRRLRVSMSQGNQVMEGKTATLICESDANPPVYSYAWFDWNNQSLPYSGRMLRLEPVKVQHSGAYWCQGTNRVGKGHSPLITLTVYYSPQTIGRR
# Method Description: ELISA, coated monkey CD22 protein, antibody 100 nM
# Experimental: In order to detect the binding activity of CD22 human-murine chimeric antibodies to CD22 protein, the purified human CD22-ECD-His protein obtained in Example 2 was diluted with PBS to a final concentration of 2 μg/mL, and then added to 96-well ELISA plate at 100 μl/well. The plate was sealed with plastic film and incubated overnight at 4° C., the plate was washed 2 times with PBS the next day, and then a blocking solution [PBS+2% (w/w) BSA] was added for blocking at room temperature for 2 hours. […]
Give OD450 for every item shown.
Provide only the numeric value, understood in OD450.

INPUT: Quick one: give measured OD450 for F1.224.1 (antibody, human IgG1, kappa, V domains shown, human-murine chimeric IgG1 kappa; VL name legible) VH: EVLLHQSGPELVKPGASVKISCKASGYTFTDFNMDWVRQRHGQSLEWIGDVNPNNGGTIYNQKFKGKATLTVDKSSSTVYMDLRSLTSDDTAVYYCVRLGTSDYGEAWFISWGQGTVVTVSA VL: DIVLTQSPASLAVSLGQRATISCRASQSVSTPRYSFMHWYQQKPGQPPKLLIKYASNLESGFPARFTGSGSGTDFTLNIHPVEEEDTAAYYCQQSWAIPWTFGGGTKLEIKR
OUTPUT: 2.87

INPUT: Answer with the recorded OD450 of F1.60.9 (antibody, human IgG1, kappa, V domains shown, human-murine chimeric IgG1 kappa) VH: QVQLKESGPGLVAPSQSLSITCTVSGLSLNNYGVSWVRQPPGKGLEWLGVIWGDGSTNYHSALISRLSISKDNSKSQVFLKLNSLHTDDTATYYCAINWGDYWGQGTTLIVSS VL: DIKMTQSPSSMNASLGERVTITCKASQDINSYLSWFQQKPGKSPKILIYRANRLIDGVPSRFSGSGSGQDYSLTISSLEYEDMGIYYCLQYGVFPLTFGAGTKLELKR only.
OUTPUT: 0.09

INPUT: Output OD450 of F1.245.2 (antibody, human IgG1, kappa, V domains shown, human-murine chimeric IgG1 kappa) VH: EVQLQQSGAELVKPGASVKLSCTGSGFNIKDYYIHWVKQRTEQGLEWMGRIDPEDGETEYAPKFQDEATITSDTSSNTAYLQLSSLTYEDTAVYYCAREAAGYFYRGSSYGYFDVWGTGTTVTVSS VL: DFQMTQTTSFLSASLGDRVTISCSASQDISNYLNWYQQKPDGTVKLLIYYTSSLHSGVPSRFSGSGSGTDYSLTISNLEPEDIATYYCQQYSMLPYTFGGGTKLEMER
OUTPUT: 0.08

INPUT: Name the recorded OD450 of the binder listed here: F1.17.1 (antibody, human IgG1, kappa, V domains shown, human-murine chimeric IgG1 kappa) VH: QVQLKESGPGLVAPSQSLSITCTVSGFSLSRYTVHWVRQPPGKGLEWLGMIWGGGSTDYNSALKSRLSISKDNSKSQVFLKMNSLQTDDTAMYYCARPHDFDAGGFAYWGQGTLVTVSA VL: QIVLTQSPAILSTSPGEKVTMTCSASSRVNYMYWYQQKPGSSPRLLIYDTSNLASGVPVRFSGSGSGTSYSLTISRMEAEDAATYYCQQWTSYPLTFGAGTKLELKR
OUTPUT: 1.91

INPUT: Using known records, supply OD450 for F2.205.9 (antibody, human IgG1, lambda, V domains shown, human-murine chimeric IgG1 lambda; VL name legible) VH: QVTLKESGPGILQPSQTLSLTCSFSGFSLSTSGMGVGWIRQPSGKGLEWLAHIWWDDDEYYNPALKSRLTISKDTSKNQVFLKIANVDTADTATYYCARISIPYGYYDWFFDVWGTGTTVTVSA VL: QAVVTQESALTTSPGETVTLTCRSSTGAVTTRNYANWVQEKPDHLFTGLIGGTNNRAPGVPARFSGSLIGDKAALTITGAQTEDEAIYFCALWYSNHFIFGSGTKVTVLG
OUTPUT: 2.33
